Assay: well-based DEL assay (MTS colorimetric, 96/384-well): genotoxicity and cytotoxicity
Details: Saccharomyces cerevisiae

- compound: "O=P1(N(CCCl)CCCl)NCCCO1 (stereo not shown) [Cyclophosphamide, cyclophosphamide monohydrate]"
  unitsSymbol: "%"
  viability at 50 μM: 109

====

Assay: in vitro
Conditions: Saccharomyces cerevisiae, Cytotoxicity (% survival), 0.2 μg/ml final in well

- molecule: "O=[N+]([O-])c1cc[n+]([O-])c2ccccc12 [4NQO, 4-nitroquinoline-1-oxide]"
  viability / %: 11.7

====

Test: well-based DEL assay (MTS colorimetric, 96/384-well): genotoxicity and cytotoxicity
Settings: Saccharomyces cerevisiae
endpointName: viability at 200 μM (%)

- compound: "O=P1(N(CCCl)CCCl)NCCCO1 (stereo not shown) [Cyclophosphamide, cyclophosphamide monohydrate]"
  endpointName: "viability at 200 μM"
  unitsSymbol: "%"
  recordedValue: 96.2

====

Test: well-based DEL assay (MTS colorimetric, 96/384-well): genotoxicity and cytotoxicity
Settings: Saccharomyces cerevisiae

- compound: "c1ccccc1 [Benzene, benzene]"
  viability at 0.4 mg/ml (%): 83.7

====

Assay: well-based DEL assay (MTS colorimetric, 96/384-well): genotoxicity and cytotoxicity
Details: Saccharomyces cerevisiae, S. cerevisiae strain RS112 (diploid yeast cells)
endpointName: viability at 15 μM

- moleculeSmiles: "CC[C@@]1(O)C(=O)OCc2c1cc1n(c2=O)Cc2cc3ccccc3nc2-1"
  recordedValue: "93.1%"

====

Test: well-based DEL assay (MTS colorimetric, 96/384-well): genotoxicity and cytotoxicity
Conditions: Saccharomyces cerevisiae
Experimental: The RS112 yeast DEL assay tester strain of Saccharomyces cerevisiae contains a plasmid with an internal fragment of the HIS3 gene integrated at the genomic HIS3 locus, yielding an integrative disruption of the HIS3 gene. This disruption results in two copies of the HIS3 gene, each copy having one terminal deletion. […] Yeast are then plated onto SC medium to determine the number of survivors (individual colonies are counted) and onto SC-HIS medium to score for DEL events. […]
endpointName: viability at 100 μM (%)

- molecule: "O=P1(N(CCCl)CCCl)NCCCO1 (stereo not shown) [Cyclophosphamide, cyclophosphamide monohydrate]"
  recordedValue: 104

====

Assay: well-based DEL assay (MTS colorimetric, 96/384-well): genotoxicity and cytotoxicity
Conditions: Saccharomyces cerevisiae
endpointName: viability at 30 μM (%)

- molecule: "O=C(O)CCCc1ccc(N(CCCl)CCCl)cc1 [Chlorambucil, chlorambucil]"
  unitsSymbol: "%"
  recordedValue: 20.5

====

Test: well-based DEL assay (MTS colorimetric, 96/384-well): genotoxicity and cytotoxicity
Conditions: Saccharomyces cerevisiae, S. cerevisiae strain RS112 (diploid yeast cells)
endpointName: viability at 2 μg/ml (%)

- molecule: "CCOS(C)(=O)=O [EMS, ethyl methanesulfonate]"
  recordedValue: 38.2

====

Assay: in vitro
Conditions: Saccharomyces cerevisiae, Cytotoxicity (% survival), 1 μg/ml final in well

- molecule: "O=[N+]([O-])c1cc[n+]([O-])c2ccccc12 [4NQO, 4-nitroquinoline-1-oxide]"
  unitsSymbol: "%"
  viability: 13.5

====

Test: well-based DEL assay (MTS colorimetric, 96/384-well): genotoxicity and cytotoxicity
Conditions: Saccharomyces cerevisiae, S. cerevisiae strain RS112 (diploid yeast cells)
endpointName: viability at 100 nM (%)

- compound: "COS(C)(=O)=O [MMS, methylmethane sulfonate]"
  unitsSymbol: "%"
  recordedValue: 74.8
